Test: Phase 1 (AG10-001) single ascending dose pharmacokinetics
Type: in vivo, human
Settings: both sexes, human, plasma, po, 50 mg, single oral dose 50 mg AG10 HCl; healthy subjects; geometric mean ± SD
Procedure: Quantitation was performed using a weighted 1/x^2 linear least squares regression analysis generated from calibration standards prepared on the day of extraction. One of the SAD cohorts received two 300 mg doses, one under fasted conditions and the other following a high fat test meal after an appropriate washout period.
readout-label: Tmax (min)
The response must be a number in min with no trailing unit.

# Tmax (compound: Cc1n[nH]c(C)c1CCCOc1cc(C(=O)O)ccc1F ) is 53.5

----------
Target: TTR (Homo sapiens)
Assay: Isothermal titration calorimetry (ITC) with TTR in buffer
Conditions: 25° C.
// boundary case: ΔH equal to -5 kcal/mol maps to not fulfilled; strictly smaller maps to fulfilled

As a guide, the following entries are already answered.
Cc1n[nH]c(C)c1CCCOc1cc(C(=O)O)ccc1I [compound 1] : fulfilled
O=C(O)c1cc(-c2ccc(F)cc2F)ccc1O [Diflunisal, reference compound] : fulfilled
CCc1n[nH]c(CC)c1CCCOc1cc(C(=O)O)ccc1F [compound 4] : not fulfilled
Cc1nn(C)c(C)c1CCCOc1cc(C(=O)O)ccc1F [compound 3] : not fulfilled

Please find the next molecule below.
Does this molecule meet the criterion ΔH < -5 kcal/mol? COC(=O)c1ccc(F)c(OCCCc2c(C)n[nH]c2C)c1 [compound 2]
fulfilled

----------
Assay: Phase 1 (AG10-001) single ascending dose pharmacokinetics
Format: in vivo, human
Conditions: both sexes, human, plasma, oral, 300 mg, SAD Cohort 3, 300 mg, Fed (high fat test meal); geometric mean; read-out: AUC0-24
readout-label: AUC(0-t)
I'd appreciate it if you wrote the number followed by its unit.

Notebook: Cc1n[nH]c(C)c1CCCOc1cc(C(=O)O)ccc1F [AG10] , AUC(0-t) read as 111 µM·h

----------
Test: Phase 1 (AG10-001) single ascending dose pharmacokinetics
Format: in vivo, human
Settings: both sexes, human, plasma, po, 800 mg, single oral dose 800 mg AG10 HCl; healthy subjects; geometric mean ± SD; read-out: C24
readout-label: concentration at 24 hr (µM)
Answer in µM, number only, no unit symbol.

Input Cc1n[nH]c(C)c1CCCOc1cc(C(=O)O)ccc1F [AG10] . Output concentration at 24 hr: 4.51

----------
Assay: Phase 1 (AG10-001) multiple ascending dose pharmacokinetics
Type: in vivo, human
Conditions: human, plasma, oral, 300 mg, 300 mg q12 h, Day 12; geometric mean
readout-label: Tmax
Number plus unit, in that order.

// Tmax lookup, compound = Cc1n[nH]c(C)c1CCCOc1cc(C(=O)O)ccc1F , result: 33.7 min

----------
Assay: Phase 1 (AG10-001) single ascending dose pharmacokinetics
Assay type: in vivo, human
Conditions: both sexes, human, plasma, po, 50 mg; read-out: T1/2 (converted)
readout-label: half-life (h)
Give the quantity in h, number only.

Input Cc1n[nH]c(C)c1CCCOc1cc(C(=O)O)ccc1F . Output half-life: 25

----------
Assay: Phase 1 (AG10-001) single ascending dose pharmacokinetics
Assay type: in vivo, human
Details: both sexes, human, plasma, po, 300 mg; read-out: T1/2 (converted)
readout-label: half-life (h)
Entry rule: numbers only, all in h.

Per the record, Cc1n[nH]c(C)c1CCCOc1cc(C(=O)O)ccc1F has half-life of 22

----------
Experiment: Phase 1 (AG10-001) single ascending dose pharmacokinetics
Type: in vivo, human
Conditions: both sexes, human, plasma, po, 150 mg, single oral dose 150 mg AG10 HCl; healthy subjects; geometric mean ± SD
Method: Quantitation was performed using a weighted 1/x^2 linear least squares regression analysis generated from calibration standards prepared on the day of extraction. One of the SAD cohorts received two 300 mg doses, one under fasted conditions and the other following a high fat test meal after an appropriate washout period.
readout-label: Cmax (µM)
I only need the number, in µM, no unit after it.

The compound listed as Cc1n[nH]c(C)c1CCCOc1cc(C(=O)O)ccc1F shows Cmax equal to 11.3

----------
Assay: Phase 1 (AG10-001) single ascending dose pharmacokinetics
Format: in vivo, human
Conditions: both sexes, human, plasma, po, 800 mg; read-out: T1/2 (converted)
readout-label: half-life (h)
Numbers only here, please. The scale is h.

Short answer for Cc1n[nH]c(C)c1CCCOc1cc(C(=O)O)ccc1F [AG10] : half-life was 26.8

----------
Assay: Phase 1 (AG10-001) single ascending dose pharmacokinetics
Format: in vivo, human
Conditions: both sexes, human, plasma, po, 800 mg, single oral dose 800 mg AG10 HCl; healthy subjects; geometric mean ± SD
readout-label: Tmax (min)
A number alone suffices; assume min.

Lab note: Cc1n[nH]c(C)c1CCCOc1cc(C(=O)O)ccc1F gave Tmax of 47.6

----------
Assay: Phase 1 (AG10-001) single ascending dose pharmacokinetics
Type: in vivo, human
Conditions: both sexes, human, plasma, po, 50 mg
readout-label: AUC(0-inf) (µM·h)
Answer in µM·h, number only, no unit symbol.

For reference, reported AUC(0-inf) for Cc1n[nH]c(C)c1CCCOc1cc(C(=O)O)ccc1F [AG10] stands at 97.1

----------
This listing pairs molecules with measured Kd.
Target: TTR (Homo sapiens, UniProt P02766)
Experiment: Isothermal titration calorimetry (ITC) with TTR in buffer
Conditions: 25° C., PBS pH 7.4, single-site binding model
Answers without a unit are incomplete; give the number and then its unit.

Examples from the recorded data:
Cc1nn(C)c(C)c1CCCOc1cc(C(=O)O)ccc1F : 251 nM
Cc1n[nH]c(C)c1CCCOc1cc(C(=O)O)ccc1I : 90 nM
CCc1n[nH]c(CC)c1CCCOc1cc(C(=O)O)ccc1F : 1250 nM

--- query ---
GET /value?item= COC(=O)c1ccc(F)c(OCCCc2c(C)n[nH]c2C)c1 &field=Kd returns 258 nM

----------
Test: Phase 1 (AG10-001) single ascending dose pharmacokinetics
Type: in vivo, human
Settings: both sexes, human, plasma, oral, 300 mg, SAD Cohort 3, 300 mg, Fed (high fat test meal); geometric mean
readout-label: Tmax (h)
Response body: numeric value in h, unit text excluded.

Recorded Tmax (compound Cc1n[nH]c(C)c1CCCOc1cc(C(=O)O)ccc1F ): 1.59

----------
Experiment: Phase 1 (AG10-001) single ascending dose pharmacokinetics
Type: in vivo, human
Details: both sexes, human, plasma, po, 800 mg, single oral dose 800 mg AG10 HCl; healthy subjects; geometric mean ± SD; read-out: AUClast
readout-label: AUC(0-t) (µM·h)
Write the value in µM·h as a bare number.

Quick note, AUC(0-t) for Cc1n[nH]c(C)c1CCCOc1cc(C(=O)O)ccc1F landed at 410

----------
Experiment: Phase 1 (AG10-001) single ascending dose pharmacokinetics
Format: in vivo, human
Conditions: both sexes, human, plasma, po, 50 mg, single oral dose 50 mg AG10 HCl; healthy subjects; geometric mean ± SD; read-out: AUC0-24
readout-label: AUC(0-t) (µM·h)
A number alone suffices; assume µM·h.

The value of AUC(0-t) measured for the compound Cc1n[nH]c(C)c1CCCOc1cc(C(=O)O)ccc1F turned out to be 58.9

----------
Assay: Phase 1 (AG10-001) single ascending dose pharmacokinetics
Type: in vivo, human
Settings: both sexes, human, plasma, po, 300 mg, single oral dose 300 mg AG10 HCl; healthy subjects; geometric mean ± SD
readout-label: Tmax

Noted for Cc1n[nH]c(C)c1CCCOc1cc(C(=O)O)ccc1F : its Tmax reads 42.4 min

----------
Assay: Phase 1 (AG10-001) multiple ascending dose pharmacokinetics
Format: in vivo, human
Conditions: human, plasma, oral, 100 mg, 100 mg q12 h, Day 12; geometric mean
readout-label: Cmax (µM)
Dear colleague, please return just the value in µM, with no unit written.

The molecule listed as Cc1n[nH]c(C)c1CCCOc1cc(C(=O)O)ccc1F shows Cmax equal to 12.1

----------
Molecular target: TTR (Homo sapiens, UniProt P02766)
Assay: Isothermal titration calorimetry (ITC) with TTR in buffer
Details: 25° C.
Kindly apply the following: yes (1) if TΔS is less than 6 kcal/mol, no (0) in every other case.

O=C(O)c1cc(-c2ccc(F)cc2F)ccc1O [Diflunisal, reference compound] : yes (1)
Cc1nn(C)c(C)c1CCCOc1cc(C(=O)O)ccc1F [compound 3] : yes (1)
Cc1n[nH]c(C)c1CCCOc1cc(C(=O)O)ccc1I [compound 1] : yes (1)
COC(=O)c1ccc(F)c(OCCCc2c(C)n[nH]c2C)c1 [compound 2] : yes (1)

// next entry
is_below(TΔS, 6 kcal/mol) for O=C(O)c1ccc2nc(-c3cc(Cl)cc(Cl)c3)oc2c1 [Tafamidis, reference compound] ?
no (0)

----------
Test: Phase 1 (AG10-001) multiple ascending dose pharmacokinetics
Type: in vivo, human
Conditions: human, plasma, oral, 800 mg, 800 mg q12 h, Day 1; geometric mean
readout-label: Tmax
Returns: string containing the number followed by the unit.

For this compound ( Cc1n[nH]c(C)c1CCCOc1cc(C(=O)O)ccc1F ), measured Tmax is 47.6 min
